- TARGET_UNDER_TEST: BRD4 BD1 protein (Homo sapiens (Human), UniProt O60885)
- EXPERIMENTAL_PROTOCOL: Fluorescence polarization binding affinity (Ki) with BRD4 BD1 protein
- TEST_PARAMETERS: fluorescence polarization; Ki calculated from IC50
pKi: −log10 of the molar value.
EXPERIMENTAL_READOUT: pKi

Below, 2 compounds whose answers are already recorded.
{"COMPOUND": "COc1cccc(NC2CCn3nnc(C)c3-c3ccc(C4=CCNCC4)cc32)c1 (stereo not shown) [LC159, 2,2,2-trifluoroacetate]", "EXPERIMENTAL_READOUT": "pKi", "NUMERIC_VALUE": 5.67}
{"COMPOUND": "Cc1nnn2c1-c1ccc(-c3cnn(C)c3)cc1[C@H](Nc1cccc(Cl)c1)CC2", "EXPERIMENTAL_READOUT": "pKi", "NUMERIC_VALUE": 8.00}

(a) CCc1nnn2c1-c1ccc(-c3cnn(C)c3)cc1C(Nc1ccc(Cl)cc1)CC2 (stereo not shown)
(b) Cc1nnn2c1-c1ccc(-c3cnn(C)c3)cc1C(Oc1ccc(F)cc1F)CC2 (stereo not shown)
(c) CC(=O)N1CC=C(c2ccc3c(c2)C(Nc2cccc(Cl)c2)CCn2nnc(C)c2-3)CC1 (stereo not shown)
Incoming: Reorder the items by pKi, least to greatest. Answer by listing the labels in the order asked for.
Outgoing: b, a, c
(b: 6.24, a: 6.89, c: 7.40)
